Reported CREATINE PHOSPHOKINASE is given for each of the following compounds.
Species on record: Rattus norvegicus
ASSAY EXPLANATION: DrugMatrix - Regimen: Daily Repeat
Format: toxicity, organism-based, Sprague-Dawley
Set-up: regimen Daily Repeat, gender Male, age 6-8 weeks
TEST CONDITIONS: in vivo, po, 0 mg/kg, 72 h, tissue Plasma, route oral GAVAGE, dose level Control, time 3 day, vehicle .5 % CMC
Write the answer as a number in u/L, unit excluded.

COMPOUND: CCc1cccc2c3c([nH]c12)C(CC)(CC(=O)O)OCC3 (stereo not drawn)
CREATINE PHOSPHOKINASE [u/L]: 123.5

COMPOUND: CC1(C)[C@H]2CC[C@]1(C)C(=O)C2 [(-)-CAMPHOR]
CREATINE PHOSPHOKINASE [u/L]: 331.5

In the following, a different compound is considered.
**Query** CREATINE PHOSPHOKINASE lookup needed for `CN1CCC[C@@H]1CCO[C@](C)(c1ccccc1)c1ccc(Cl)cc1` , thanks.
**Result** 1325.83

* * *

Species on record: Rattus norvegicus
ASSAY EXPLANATION: DrugMatrix - Regimen: Daily Repeat
Format: toxicity, organism-based, Sprague-Dawley
Set-up: regimen Daily Repeat, gender Male, age 6-8 weeks
TEST CONDITIONS: in vivo, po, 0 mg/kg, 72 h, tissue Blood, route oral GAVAGE, dose level Control, time 3 day, vehicle .5 % CMC
READOUT: LYMPHOCYTE

COMPOUND: Cc1c(-c2ccccc2)oc2c(C(=O)OCCN3CCCCC3)cccc2c1=O [FLAVOXATE]
LYMPHOCYTE: 84.83%
--
COMPOUND: CC1(C)[C@H]2CC[C@]1(C)C(=O)C2 [(-)-CAMPHOR]
LYMPHOCYTE: 89.33%
--
COMPOUND: C=C1CC[C@H](O)C/C1=C/C=C1\CCC[C@]2(C)[C@@H]([C@H](C)/C=C/[C@H](C)C(C)C)CC[C@@H]12
LYMPHOCYTE: 91.17%
--
COMPOUND: Brc1ccccc1
LYMPHOCYTE: 85.5%
--
COMPOUND: C[C@]12CCC(=O)C=C1CC[C@@H]1[C@@H]2C(=O)C[C@@]2(C)[C@H]1CC[C@]2(O)C(=O)CO
LYMPHOCYTE: 76.48%

**Query** LYMPHOCYTE lookup needed for CCOC(=O)OC(C)OC1=C(C(=O)Nc2ccccn2)N(C)S(=O)(=O)c2ccccc21 (centres undefined) , thanks.
**Result** 85.5%

**Query** LYMPHOCYTE lookup needed for `O=C1CCc2cc(OCCCCc3nnnn3C3CCCCC3)ccc2N1` , thanks.
**Result** 84.44%

**Query** LYMPHOCYTE lookup needed for `CC[C@H]1OC(=O)[C@H](C)[C@@H](O[C@H]2C[C@@](C)(OC)[C@@H](O)[C@H](C)O2)[C@H](C)[C@@H](O[C@@H]2O[C@H](C)C[C@H](N(C)C)[C@H]2O)[C@](C)(O)C[C@@H](C)/C(=N\OCOCCOC)[C@H](C)[C@@H](O)[C@]1(C)O` , thanks.
**Result** 76.48%

**Query** LYMPHOCYTE lookup needed for `COC(=O)c1ccc(O)cc1` , thanks.
**Result** 88%

* * *

Species: Rattus norvegicus
ASSAY EXPLANATION: DrugMatrix - Regimen: Daily Repeat
Format: toxicity, organism-based, Sprague-Dawley
Parameters: regimen Daily Repeat, gender Male, age 6-8 weeks
TEST CONDITIONS: in vivo, po, 0 mg/kg, 72 h, tissue Plasma, route oral GAVAGE, dose level Control, time 3 day, vehicle 100 % WATER
READOUT: LACTATE DEHYDROGENASE (u/L)
Write the answer as a number in u/L, unit excluded.

COMPOUND: CC1(C)S[C@@H]2[C@H](NC(=O)[C@H](N)c3ccc(O)cc3)C(=O)N2[C@H]1C(=O)O
UNIT ANNOTATION: u/L
LACTATE DEHYDROGENASE: 186.17
//
COMPOUND: COc1cccc(C2(O)CCCCC2CN(C)C)c1 (stereo not given)
UNIT ANNOTATION: u/L
LACTATE DEHYDROGENASE: 147.83
//
COMPOUND: COc1cc2c(N3CCN(C(=O)Nc4ccc(OC(C)C)cc4)CC3)ncnc2cc1OCCCN1CCCCC1
UNIT ANNOTATION: u/L
LACTATE DEHYDROGENASE: 426.17
//
COMPOUND: Cn1cnc([N+](=O)[O-])c1Sc1ncnc2nc[nH]c12
UNIT ANNOTATION: u/L
LACTATE DEHYDROGENASE: 101.5
//
COMPOUND: CC(CCc1ccccc1)NCC(O)c1ccc(O)c(C(N)=O)c1 (stereo not given)
UNIT ANNOTATION: u/L
LACTATE DEHYDROGENASE: 157.5
//
COMPOUND: COc1ccc(C(CN(C)C)C2(O)CCCCC2)cc1 (stereo not given)
UNIT ANNOTATION: u/L
LACTATE DEHYDROGENASE: 263.83

**Query** LACTATE DEHYDROGENASE lookup needed for `O=C1NC(=O)C(c2ccccc2)(c2ccccc2)N1` , thanks.
**Result** 230

**Query** LACTATE DEHYDROGENASE lookup needed for `Cc1cc(NS(=O)(=O)c2ccc(N)cc2)no1` , thanks.
**Result** 263.83

**Query** LACTATE DEHYDROGENASE lookup needed for `NCC1(CC(=O)O)CCCCC1` , thanks.
**Result** 222.17

**Query** LACTATE DEHYDROGENASE lookup needed for `NNC(=O)c1ccncc1` , thanks.
**Result** 244.83

* * *

Reported SODIUM is given for each of the following compounds.
Organism: Rattus norvegicus
ASSAY EXPLANATION: DrugMatrix - Regimen: Daily Repeat
Format: toxicity, organism-based, Sprague-Dawley
Set-up: regimen Daily Repeat, gender Male, age 6-8 weeks
TEST CONDITIONS: in vivo, po, 0 mg/kg, 72 h, tissue Plasma, route oral GAVAGE, dose level Control, time 3 day, […]
Write the answer as a number in MEQ/L, unit excluded.

SMILES NOTATION: C=CCN
SODIUM, MEQ/L: 145
//
SMILES NOTATION: Oc1c(Cl)cc(Cl)cc1Sc1cc(Cl)cc(Cl)c1O
SODIUM, MEQ/L: 143.02
//
SMILES NOTATION: COC1=CC(=O)C[C@@H](C)[C@]12Oc1c(Cl)c(OC)cc(OC)c1C2=O
SODIUM, MEQ/L: 142.9
//
SMILES NOTATION: Cn1cnc([N+](=O)[O-])c1Sc1ncnc2nc[nH]c12
SODIUM, MEQ/L: 142.83
//
SMILES NOTATION: c1ccc2[nH]c(-c3cscn3)nc2c1
SODIUM, MEQ/L: 137.67

In the following, a different compound is considered.
**Query** SODIUM lookup needed for `CC1=C(/C=C/C(C)=C/C=C/C(C)=C\C(=O)O)C(C)(C)CCC1` , thanks.
**Result** 143.57

* * *

Species on record: Rattus norvegicus
ASSAY EXPLANATION: DrugMatrix - Regimen: Daily Repeat
Format: toxicity, organism-based, Sprague-Dawley
Parameters: regimen Daily Repeat, gender Male, age 6-8 weeks
TEST CONDITIONS: in vivo, po, 0 mg/kg, 120 h, tissue Blood, route oral GAVAGE, dose level Control, time 5 day, vehicle 100 % WATER
Reported LYMPHOCYTE is given for each of the following compounds.
Write the answer as a number in %, unit excluded.

Examples from the recorded data:
COMPOUND: CN1CCN(C(=O)OC2c3nccnc3C(=O)N2c2ccc(Cl)cn2)CC1 (stereo unspecified)
UNIT ANNOTATION: %
MEASURED: 89.83
//
COMPOUND: CC1(C)S[C@@H]2[C@H](NC(=O)[C@H](N)c3ccc(O)cc3)C(=O)N2[C@H]1C(=O)O
UNIT ANNOTATION: %
MEASURED: 92.33
//
COMPOUND: O=C1NC(=O)C(c2ccccc2)(c2ccccc2)N1
UNIT ANNOTATION: %
MEASURED: 87.5
//
COMPOUND: CC(C)(S)[C@@H](N)C(=O)O
UNIT ANNOTATION: %
MEASURED: 92.67
//
COMPOUND: CN1CCC[C@H]1c1cccnc1
UNIT ANNOTATION: %
MEASURED: 90.67
//
COMPOUND: NNC(=O)c1ccncc1
UNIT ANNOTATION: %
MEASURED: 87.5
//
COMPOUND: COc1cccc(C2(O)CCCCC2CN(C)C)c1 (stereo unspecified)
UNIT ANNOTATION: %
MEASURED: 90.33
//
COMPOUND: C[C@]12Cc3c[nH]nc3C[C@@H]1CC[C@@H]1[C@@H]2CC[C@@]2(C)[C@H]1CC[C@]2(C)O
UNIT ANNOTATION: %
MEASURED: 90.33

**Query** LYMPHOCYTE lookup needed for Clc1ccc(C(c2ccccc2Cl)C(Cl)Cl)cc1 (stereo unspecified) , thanks.
**Result** 92.17

**Query** LYMPHOCYTE lookup needed for `Cc1cc(NS(=O)(=O)c2ccc(N)cc2)no1` , thanks.
**Result** 89.5

**Query** LYMPHOCYTE lookup needed for `Cn1cnc([N+](=O)[O-])c1Sc1ncnc2nc[nH]c12` , thanks.
**Result** 93.5

src = ChEMBL document CHEMBL3885881
